target-desc: ztf-6 (W06H12.1) (Caenorhabditis elegans) (UniProt G5EC77)
Sequence: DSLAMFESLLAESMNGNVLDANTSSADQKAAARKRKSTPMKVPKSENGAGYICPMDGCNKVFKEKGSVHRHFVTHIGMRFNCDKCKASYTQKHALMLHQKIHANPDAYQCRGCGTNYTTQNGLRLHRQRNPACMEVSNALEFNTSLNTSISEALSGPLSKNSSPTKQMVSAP
measure-name: binding signal (PBM E-score (-0.5 to 0.5))

These recorded examples may help you get a feel for the data.
# sequence-content, target-desc, reading
data = [
    ("TGCTGAAA (double strand) [8-mer TGCTGAAA]", "ztf-6 (W06H12.1) (Caenorhabditis elegans) (UniProt G5EC77)", 0.494),
    ("TCTGAAAA (double strand) [8-mer TCTGAAAA]", "ztf-6 (W06H12.1) (Caenorhabditis elegans) (UniProt G5EC77)", 0.492),
    ("ATTTCAGC (double strand) [8-mer ATTTCAGC]", "ztf-6 (W06H12.1) (Caenorhabditis elegans) (UniProt G5EC77)", 0.492),
    ("GCTGAAAC (double strand) [8-mer GCTGAAAC]", "ztf-6 (W06H12.1) (Caenorhabditis elegans) (UniProt G5EC77)", 0.495),
    ("AATTTCAG (double strand) [8-mer AATTTCAG]", "ztf-6 (W06H12.1) (Caenorhabditis elegans) (UniProt G5EC77)", 0.493),
]

Q) Write down the reported binding signal (PBM E-score (-0.5 to 0.5)) of GTTTCAGA (double strand) [8-mer GTTTCAGA] , test system: ztf-6 (W06H12.1) (Caenorhabditis elegans) (UniProt G5EC77).
A) 0.494

Q) Write down the reported binding signal (PBM E-score (-0.5 to 0.5)) of ATCTGAAA (double strand) [8-mer ATCTGAAA] , test system: ztf-6 (W06H12.1) (Caenorhabditis elegans) (UniProt G5EC77).
A) 0.492

Q) Write down the reported binding signal (PBM E-score (-0.5 to 0.5)) of GGCTGAAA (double strand) [8-mer GGCTGAAA] , test system: ztf-6 (W06H12.1) (Caenorhabditis elegans) (UniProt G5EC77).
A) 0.491
